B1: HHH_rd1_0493 (parent)
chain: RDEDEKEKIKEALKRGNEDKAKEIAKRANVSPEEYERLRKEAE

variants of: B1; assay: folding stability dG (cDNA display proteolysis); higher = more stable; settings: PBS, room temperature
Provide the reported folding stability dG of each item.
Give just the numeric value; kcal/mol need not be written.

Request: // Input: RDEDEKEKIKEALKRGNEDKLKEIAKRANVSPEEYERLRKEAE [A21L] . Output its folding stability dG only.
Response: 0.541

Request: // Input: RDEDEKEKIKEALKRGNEDKAKEIAKRANVSPEEYERLRKGAE [E41G] . Output its folding stability dG only.
Response: 1.59

Request: // Input: RDEDEKEKIKEALKRGNERKAKEIAKRANVSPEEYERLRKEAE [D19R] . Output its folding stability dG only.
Response: 2.97

Request: // Input: RDEDEKEKIKEALKRGNEDKAKEIAKRAMVSPEEYERLRKEAE [N29M] . Output its folding stability dG only.
Response: 2.51

Request: // Input: RDEDEKEKIKEALKRGNEDKAKEIAKRANVSPEERERLRKEAE [Y35R] . Output its folding stability dG only.
Response: 0.281

Request: // Input: RSEDEKEKIKEALKRGNEDKAKEIAKRANVSPEEYERLRKEAE [D2S] . Output its folding stability dG only.
Response: 2.71

Request: // Input: RDEDEKEKIKEALKRGNEDKAKEIARRANVSPEEYERLRKEAE [K26R] . Output its folding stability dG only.
Response: 3.1

Request: // Input: RDEDEKEKISEALKRGNEDKAKEIAKRANVSPEEYERLRKEAE [K10S] . Output its folding stability dG only.
Response: 1.27

Request: // Input: RDEDEKEKIKEALKRGNEDKAKEIKKRANVSPEEYERLRKEAE [A25K] . Output its folding stability dG only.
Response: 0.845

Request: // Input: RDEDEKEKIKEALKRGNEDKAKEIAKRANVSEEEYERLRKEAE [P32E] . Output its folding stability dG only.
Response: 2.85

Request: // Input: RDEDEKEKIKEALKRGNEDKAKEIAKRANVSPEEYERLRKIAE [E41I] . Output its folding stability dG only.
Response: 2.38

Request: // Input: RDEDEKEKIKEALKRGNEDKAKEIAKFANVSPEEYERLRKEAE [R27F] . Output its folding stability dG only.
Response: 2.01

Request: // Input: RWEDEKEKIKEALKRGNEDKAKEIAKRANVSPEEYERLRKEAE [D2W] . Output its folding stability dG only.
Response: 3.17

Request: // Input: RDEDEKEKIKEALKRGNEDKAKEIAKRANVSVEEYERLRKEAE [P32V] . Output its folding stability dG only.
Response: 2.74

Request: // Input: RLEDEKEKIKEALKRGNEDKAKEIAKRANVSPEEYERLRKEAE [D2L] . Output its folding stability dG only.
Response: 3.39
